molecular target: E. coli DnaE (DNA polymerase III α-subunit from Escherichia coli) (Escherichia coli, UniProt P10443); construct: EcDnaE (E. coli DnaE residues 1-1160); 6xHis (N); made in house; host or cells: E. coli BL21(DE3); test: In vitro DnaE single enzyme assay (E. coli); type: biochemical; details: read-out: E. coli DnaE IC50 (converted)
Sequence (P10443 whole entry, the tested form may be a part): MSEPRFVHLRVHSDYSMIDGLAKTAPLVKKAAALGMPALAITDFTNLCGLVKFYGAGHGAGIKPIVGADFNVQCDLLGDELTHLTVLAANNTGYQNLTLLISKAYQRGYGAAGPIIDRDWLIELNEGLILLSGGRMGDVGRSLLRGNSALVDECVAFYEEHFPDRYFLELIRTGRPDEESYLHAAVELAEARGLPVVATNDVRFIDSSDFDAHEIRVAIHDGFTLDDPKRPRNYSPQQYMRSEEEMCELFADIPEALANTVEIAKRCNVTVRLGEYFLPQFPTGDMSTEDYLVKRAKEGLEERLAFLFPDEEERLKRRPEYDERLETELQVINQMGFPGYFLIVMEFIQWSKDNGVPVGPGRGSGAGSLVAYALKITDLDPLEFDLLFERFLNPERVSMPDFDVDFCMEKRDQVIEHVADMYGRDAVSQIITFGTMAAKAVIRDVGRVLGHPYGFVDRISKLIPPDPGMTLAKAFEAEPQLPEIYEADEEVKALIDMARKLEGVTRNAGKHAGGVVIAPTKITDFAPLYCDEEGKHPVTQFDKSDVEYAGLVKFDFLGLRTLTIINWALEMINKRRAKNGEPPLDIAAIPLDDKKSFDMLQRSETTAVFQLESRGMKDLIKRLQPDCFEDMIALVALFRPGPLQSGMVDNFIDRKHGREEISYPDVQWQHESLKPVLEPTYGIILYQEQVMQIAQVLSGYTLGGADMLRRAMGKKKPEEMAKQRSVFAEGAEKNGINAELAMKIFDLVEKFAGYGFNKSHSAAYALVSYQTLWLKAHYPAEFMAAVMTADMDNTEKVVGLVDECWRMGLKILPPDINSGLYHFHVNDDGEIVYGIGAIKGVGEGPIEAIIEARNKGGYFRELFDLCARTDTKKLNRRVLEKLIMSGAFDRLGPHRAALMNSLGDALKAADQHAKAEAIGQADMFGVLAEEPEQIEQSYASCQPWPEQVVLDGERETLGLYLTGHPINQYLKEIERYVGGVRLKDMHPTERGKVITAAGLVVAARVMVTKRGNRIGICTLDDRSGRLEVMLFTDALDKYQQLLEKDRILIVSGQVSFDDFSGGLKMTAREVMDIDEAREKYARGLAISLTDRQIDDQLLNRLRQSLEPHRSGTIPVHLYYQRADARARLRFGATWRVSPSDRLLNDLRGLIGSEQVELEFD
readout-kind: IC50

- molecule: "CO[C@H]1C[C@H]2C=C[C@H]3[C@H]4O[C@]2(/C(C)=C/[C@@H](C)[C@@H]([C@@H](C)OC(=O)NC(C)(CO)CO)OC1=O)[C@@H]3[C@H](O)[C@@H](C)[C@H]4OC(=O)c1ccc[nH]1"
  result: "> 155 µM"
- molecule: "CO[C@H]1C[C@H]2C=C[C@H]3[C@H]4O[C@]2(/C(C)=C/[C@@H](C)[C@@H]([C@@H](C)OC(N)=O)OC1=O)[C@@H]3[C@H](O)[C@@H](C)[C@H]4OC(=O)c1ccc[nH]1"
  result: "53.7 µM"
- molecule: "CO[C@H]1C[C@H]2C=CC3C4[C@H](O)[C@@H](C)[C@@H](OC(=O)c5cc(NC(=O)c6ccccc6)c[nH]5)[C@@H]3O[C@]42/C(C)=C/[C@@H](C)[C@@H]([C@@H](C)O)OC1=O"
  result: "> 158 µM"

stdin: For the molecule shown here, CO[C@H]1CC2C=C[C@H]3[C@H]4O[C@]2(/C(C)=C/[C@@H](C)[C@@H](C(C)O)OC1=O)[C@@H]3[C@H](O)[C@@H](C)[C@H]4OC(=O)c1ccc[nH]1 (some centres unmarked) [Example 145, Nargenicin A1, reference compound] , give the reported IC50.
stdout: 1.75 µM

stdin: Consider next the molecule CO[C@H]1CC2C=C[C@H]3[C@H]4O[C@]2(/C(C)=C/[C@@H](C)[C@@H]([C@@H](C)O)OC1=O)[C@@H]3[C@H](OC(=O)NS(=O)(=O)c1ccccc1)[C@@H](C)[C@H]4OC(=O)c1ccc[nH]1 (some centres unmarked) in the same way.
stdout: > 143 µM

stdin: Consider next the molecule CO[C@H]1C[C@H]2C=CC3C4[C@H](O)[C@@H](C)[C@@H](OC(=O)c5ccc[nH]5)[C@@H]3O[C@]42/C(C)=C/[C@@H](C)[C@@H]([C@@H](C)OC(=O)C(=O)OCCCN(C)C)OC1=O.O=C(O)C(F)(F)F in the same way.
stdout: 1.91 µM

stdin: Consider next the molecule CO[C@H]1C[C@H]2CC(=O)[C@H]3[C@H]4O[C@]2(/C(C)=C/[C@@H](C)[C@@H]([C@@H](C)O)OC1=O)[C@@H]3[C@H](O)[C@@H](C)[C@H]4OC(=O)c1ccc[nH]1 in the same way.
stdout: > 188 µM

stdin: Consider next the molecule CNS(=O)(=O)CCNC(=O)O[C@H](C)[C@H]1OC(=O)[C@@H](OC)C[C@H]2C=C[C@H]3[C@H]4O[C@]2(/C(C)=C/[C@H]1C)[C@@H]3[C@H](O)[C@@H](C)[C@H]4OC(=O)c1ccc[nH]1 in the same way.
stdout: > 147 µM

* * *

Target: S. aureus DnaE (DNA polymerase III α-subunit homolog from Staphylococcus aureus) (Staphylococcus aureus, UniProt Q5HF71)
Construct: SaDnaE (S. aureus DnaE residues 1-1065); 6xHis (N); made in house; host or cells: E. coli BL21-AI
Sequence (Q5HF71 1-1065): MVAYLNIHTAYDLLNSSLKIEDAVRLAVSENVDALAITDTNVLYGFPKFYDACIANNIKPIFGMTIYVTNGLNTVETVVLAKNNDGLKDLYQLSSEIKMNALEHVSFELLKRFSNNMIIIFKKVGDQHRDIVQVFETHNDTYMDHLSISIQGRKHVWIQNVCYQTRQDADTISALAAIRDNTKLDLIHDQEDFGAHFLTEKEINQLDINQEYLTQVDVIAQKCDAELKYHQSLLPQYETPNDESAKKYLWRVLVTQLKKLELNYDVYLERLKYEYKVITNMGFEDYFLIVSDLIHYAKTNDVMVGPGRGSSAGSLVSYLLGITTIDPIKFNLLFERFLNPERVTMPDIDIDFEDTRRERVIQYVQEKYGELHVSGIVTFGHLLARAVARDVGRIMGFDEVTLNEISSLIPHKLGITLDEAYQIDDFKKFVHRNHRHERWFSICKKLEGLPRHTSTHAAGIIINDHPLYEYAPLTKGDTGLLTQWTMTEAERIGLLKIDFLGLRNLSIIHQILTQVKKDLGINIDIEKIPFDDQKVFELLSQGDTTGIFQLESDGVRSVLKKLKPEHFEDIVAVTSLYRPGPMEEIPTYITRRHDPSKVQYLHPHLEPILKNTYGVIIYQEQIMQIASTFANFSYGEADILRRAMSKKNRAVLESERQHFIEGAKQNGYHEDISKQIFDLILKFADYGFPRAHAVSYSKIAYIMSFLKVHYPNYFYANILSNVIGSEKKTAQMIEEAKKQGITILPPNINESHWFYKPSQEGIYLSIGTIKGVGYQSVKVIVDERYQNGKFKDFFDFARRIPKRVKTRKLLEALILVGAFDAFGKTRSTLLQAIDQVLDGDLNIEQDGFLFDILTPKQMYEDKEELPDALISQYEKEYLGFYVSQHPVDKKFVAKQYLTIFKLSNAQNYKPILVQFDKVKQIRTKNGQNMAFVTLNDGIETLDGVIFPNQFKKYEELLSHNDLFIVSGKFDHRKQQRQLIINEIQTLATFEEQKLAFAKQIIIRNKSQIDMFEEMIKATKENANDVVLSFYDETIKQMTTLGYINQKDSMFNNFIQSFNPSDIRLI
Experiment: biochemical
Type: biochemical
Conditions: read-out: S. aureus DnaE IC50 (converted)
Reported IC50 is given for each of the following compounds.
Please state the figure in µM; there is no need to write the unit.

- compound: "CO[C@H]1CC2C=C[C@H]3[C@H]4O[C@]2(/C(C)=C/[C@@H](C)[C@@H]([C@@H](C)O)OC1=O)[C@@H]3[C@H](OC(=O)NC1CC1)[C@@H](C)[C@H]4OC(=O)c1ccc[nH]1 (stereo partly drawn)"
  readout-kind: "IC50"
  numeric-readout: 15
- compound: "COC1CC2C=CC3C4OC2(C(C)=CC(C)C(C(C)OC(=O)NCCCN2CCN(C)CC2)OC1=O)C3C(O)C(C)C4OC(=O)c1ccc[nH]1 (stereo not drawn)"
  readout-kind: "IC50"
  numeric-readout: 0.03

Turning now to a further record.
stdin: For the compound shown here, C=CC[C@H]1[C@@H]2O[C@@]34/C(C)=C/[C@@H](C)[C@@H]([C@@H](C)O)OC(=O)[C@@H](OC)C[C@H]3C=C[C@@H]2[C@H]4C(=O)[C@@H]1C , give the reported IC50.
stdout: 5.62
